Listing of entries alongside the reported k cat/K m.
tested-target: CATPO E484I variant (Scytalidium thermophilum (Humicola insolens), UniProt M4GGR5, E503I)
Sequence (M4GGR5 entry or part of it E503I): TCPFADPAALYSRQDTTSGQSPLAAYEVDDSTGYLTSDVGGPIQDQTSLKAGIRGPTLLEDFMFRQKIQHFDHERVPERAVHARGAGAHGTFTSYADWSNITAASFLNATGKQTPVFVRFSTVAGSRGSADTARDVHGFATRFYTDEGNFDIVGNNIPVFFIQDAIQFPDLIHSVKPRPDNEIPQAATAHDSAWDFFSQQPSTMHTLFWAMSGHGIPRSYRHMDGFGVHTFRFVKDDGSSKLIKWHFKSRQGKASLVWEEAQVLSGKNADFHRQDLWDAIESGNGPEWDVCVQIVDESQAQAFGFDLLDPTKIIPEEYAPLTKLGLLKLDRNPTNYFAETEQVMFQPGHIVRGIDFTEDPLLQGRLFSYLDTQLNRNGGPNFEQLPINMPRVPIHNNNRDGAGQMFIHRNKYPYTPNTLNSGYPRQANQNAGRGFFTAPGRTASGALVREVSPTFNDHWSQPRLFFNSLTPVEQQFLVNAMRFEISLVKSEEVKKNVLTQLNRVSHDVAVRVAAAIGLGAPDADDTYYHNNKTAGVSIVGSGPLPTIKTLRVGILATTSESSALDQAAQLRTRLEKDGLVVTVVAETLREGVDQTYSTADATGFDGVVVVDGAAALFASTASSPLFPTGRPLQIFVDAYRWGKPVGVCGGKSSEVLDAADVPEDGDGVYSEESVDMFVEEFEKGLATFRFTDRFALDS
Format: biochemical
Marks after values point to notes of the source that are not given here.

compound	k cat/K m
Cc1ccc(O)c(O)c1 [4-Methylcatechol, 4-methylcatechol]	5480 ± 80 s^−1 M^−1 (×10^2)
CCn1c(=NN=c2sc3cc(S(=O)(=O)O)ccc3n2CC)sc2cc(S(=O)(=O)O)ccc21 [ABTS]	170 ± 10 s^−1 M^−1 (×10^2)
CC(C)(C)c1ccc(O)c(O)c1 [1,4-tert-Butylcatechol, 4-tert-butylcatechol]	4450 ± 66 s^−1 M^−1 (×10^2)
Oc1cccc(O)c1O [Pyrogallol, pyrogallol]	3060 ± 30 s^−1 M^−1 (×10^2)
Oc1ccccc1O [Catechol, catechol]	8800 ± 72 s^−1 M^−1 (×10^2)
Oc1ccc(O)cc1 [Hydroquinone, p-hydroquinone]	460 ± 20 s^−1 M^−1 (×10^2)

// provenance: paper PMC10836395
